Numbers sourced from patent US20220017622A1.

assayTarget: T1, human B7-H4 extracellular domain (human, UniProt Q7Z7D3 29-258)
T1 construct: For SPR it says only human B7-H4 ECD; also called Hu B7-H4 ECD; huB7-H4 ECD
T1 sequence: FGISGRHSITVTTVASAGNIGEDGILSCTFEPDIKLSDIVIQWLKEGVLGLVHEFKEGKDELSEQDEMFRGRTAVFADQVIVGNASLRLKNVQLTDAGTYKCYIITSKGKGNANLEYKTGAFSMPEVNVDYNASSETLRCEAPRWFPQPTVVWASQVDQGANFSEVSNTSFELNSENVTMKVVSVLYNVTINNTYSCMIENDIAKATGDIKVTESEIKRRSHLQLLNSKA
assayRemarks: SPR Biacore 8K 25 C; mAb captured on anti-human Fc, huB7-H4 ECD analyte, 1:1 fit;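 further: antibodies tested as IgG1, running buffer HBS-EP+ at pH 7.4, rate constants and affinity from a 1:1 Langmuir model fit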
endpointLabel: koff (s⁻¹)
API: value field is a number in s⁻¹; no unit string.

Reference set (3 entries):
{"binder": "B7-H4 antibody 0052 (antibody, human IgG1, kappa, V domains shown, also called 28D10) VH: QVQLQQWGAGLLKPSETLSLTCAVYGGSFSGYYWNWIRQPPGKGLEWIGEINHSGSTKYNPSLKSRVTISGDTSKNQFSLKLNSVTAADTAVYYCVRGLYNWNVDSWGQGTLVTVSS VL: DIQMTQSPSSLSASVGDRVTITCRASQGIRNDLGWYQQKPGKAPKRLIYVASSLQSGVPSRFSGSGSGTEFTLTISSLQPEDFATYYCLQHNSYPYTFGQGTKLEIKR", "unitText": "s⁻¹", "koff": 0.0011}
{"binder": "B7-H4 antibody 0057 (antibody, human IgG1, kappa, V domains shown, also called 34A3) VH: EVQLLESGGGLVQPGGSLRLSCAASGFTFSSYAMSWVRQAPGKGLEWVSAISGRGGSTYYTDSVKGRFTISRDNSRNTLYLQMNILRAEDTAVYYCARDLQWFGESTLFDYWGQGTLVTVSS VL: DIQLTQSPSTLSASVGDRVTITCRASQSISAWLAWFQQKPGKAPKLLIYKASSLESGVPSRFSGSGSGTEFTLTISSLQPDDFATYYCQQYNSYSRSFGQGTKLEIKR", "unitText": "s⁻¹", "koff": 0.000508}
{"binder": "B7-H4 antibody 0051 (antibody, human IgG1, kappa, V domains shown, also called 27C12) VH: EVQLLESGGGLVQPGGSLRLSCAASGFTFSSYAMSWVRQAPGKGLEWVSSISGNGGSTYYADSVKGRFTISRDNSKNTLSLQMNSLRAEDTAVYYCAKVGWRTGDYWGQGTLVTVSS VL: DIQLTQSPSTLSASVGDRVTITCRASQSISSWLAWYQQKAGKAPKLLIYKASDLESGVPSRFSGSGSGIEFTLTISSLQPDDFATYYCQQYNSYSWTFGQGTKVEIKR", "unitText": "s⁻¹", "koff": 0.000464}

Now consider a different binder.
Hello, please tell me recorded koff for this one: B7-H4 antibody 0048 (antibody, human IgG1, kappa, V domains shown, also called 11F12) VH: EVQLLESGGGLVQPGGSLRLSCAASGFTFSSYAMKWVRQAPGKGLEWVSTTSGSGGTTYYADSVKGRFTISRDNSKNTLYLQMNSLRAEDTAVYYCAKAGWAAAFDYWGQGTLVTVSS VL: DIQLTQFPSTLSASVGDRITITCRASQSISDWLAWYQQKPGKAPKLLIYKASSLESGVPSRFSGSGSGTEFTLTISSLQPDDFATYYCQQCNSYWTFGQGTKVEIKR
0.000619
